// endpoint MIC / system K. pneumoniae ST258
reportedEndpoint: MIC

* CC1(C)S[C@@H]2[C@H](NC(=O)[C@H](N)c3ccccc3)C(=O)N2[C@H]1C(=O)O [Ampicillin] | > 16 µg/mL
* CO[C@H]1/C=C/O[C@@]2(C)Oc3c(C)c(O)c4c(O)c(c(/C=N/N5CCN(C)CC5)c(O)c4c3C2=O)NC(=O)/C(C)=C\C=C\[C@H](C)[C@H](O)[C@@H](C)[C@@H](O)[C@@H](C)[C@H](OC(C)=O)[C@@H]1C [Rifampicin, rifampicin] | > 2 µg/mL
* CO[C@@]1(NC(=O)Cc2cccs2)C(=O)N2C(C(=O)O)=C(COC(N)=O)CS[C@@H]21 [Cefoxitin] | > 16 µg/mL
* COCC1=C(C(=O)O)N2C(=O)[C@@H](NC(=O)/C(=N\OC)c3csc(N)n3)[C@H]2SC1 [Cefpodoxime] | > 16 µg/mL
* C[C@H]1c2cccc(O)c2C(=O)C2=C(O)[C@]3(O)C(=O)C(C(N)=O)=C(O)[C@@H](N(C)C)[C@@H]3[C@@H](O)[C@@H]21 [Doxycycline] | 4 µg/mL
* CC[C@H]1OC(=O)[C@H](C)[C@@H](O[C@H]2C[C@@](C)(OC)[C@@H](O)[C@H](C)O2)[C@H](C)[C@@H](O[C@@H]2O[C@H](C)C[C@H](N(C)C)[C@H]2O)[C@](C)(O)C[C@@H](C)C(=O)[C@H](C)[C@@H](O)[C@]1(C)O [Erythromycin] | > 4 µg/mL
